Tested on: Caco-2
Assay: cell viability relative to DMSO; higher = less toxic
Details: 72 h; 10 nM
Each entry below carries its recorded cell viability.
EXPERIMENTAL ENDPOINT: cell viability

[[record]]
compound = "CCc1c(O)cc(O)c(C(=O)c2ccc(OCCN3CCOCC3)c(OC)c2)c1CC(=O)N(CCOC)CCOC [KW-2478]"
readout_value = "96.3%"

[[record]]
compound = "COc1cc(N)c(Cl)cc1C(=O)CCC1CCN(CCNS(C)(=O)=O)CC1"
readout_value = "97.3%"

[[record]]
compound = "COCc1nnc(N2CC(Oc3ccc(F)cc3Cl)C2)n1-c1ccc(OC)nc1"
readout_value = "105%"

[[record]]
compound = "CCc1nc(C(N)=O)c(Nc2ccc(N3CCC(N4CCN(C)CC4)CC3)c(OC)c2)nc1NC1CCOCC1 [gilteritinib]"
readout_value = "98.1%"

[[record]]
compound = "CC[N+]1(C)CCCC(OC(=O)C(O)(c2ccccc2)c2ccccc2)C1 (stereo not drawn) [pipenzolate]"
readout_value = "100%"

[[record]]
compound = "CC(=O)OCC(=O)[C@@]12OC(C)(C)O[C@@H]1C[C@H]1[C@@H]3C[C@H](F)C4=CC(=O)C=C[C@]4(C)[C@@]3(F)[C@@H](O)C[C@@]12C [fluocinonide]"
readout_value = "95.6%"

[[record]]
compound = "O=C(CCCCCCCC(=O)NCCO)NCCO [adelmidrol]"
readout_value = "98.7%"

[[record]]
compound = "CN(C)CCCCC(=O)Nc1ccc(NC(=S)NC(=O)c2ccc(C(C)(C)C)cc2)cc1 [tenovin-6]"
readout_value = "100%"

